test: binders of probe aFST on microarray, primary screen, stem cell growth factor project, biochemical, small-molecule microarray, fluorescence 635/667 (AID 1086); details: higher = more signal;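 further: score merges 667 nm fluorescence with signal-to-noise of each printed compound spot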
List of composite z-score values.

Quick one: composite z-score for CCOC(=O)[C@H](Cc1ccccc1)NC(=O)CCC1CC(OC(=O)NCCc2ccc(F)cc2)CC2(CCCC(COC(=O)NCc3ccccc3)O2)O1 (some centres not stated) ?
0.0791

Quick one: composite z-score for `O=C1[C@H]2[C@H]3[C@H](O)[C@H](O)CC(=NO[C@@H]4O[C@H](CO)[C@@H](O)[C@H](O)[C@H]4O)[C@H]3CC[C@H]2C(=O)N1c1cccc(Oc2ccccc2)c1` ?
-0.278

Quick one: composite z-score for `C#CCCCON=C1C[C@@H](O)[C@@H](O)[C@@H]2[C@@H]3C(=O)N(C(C)(C)C)C(=O)[C@@H]3CC[C@H]12` ?
0.774

Quick one: composite z-score for `COc1ccc(O[C@H]2C=C[C@@H](c3ccccc3)O[C@@H]2CON=C(C)C)cc1` ?
-0.195

Quick one: composite z-score for CCOC(=O)[C@H](Cc1ccccc1)NC(=O)CCC1CC(OC(=O)NCCc2ccc(F)cc2)CC2(CCCC(COC(=O)NCCc3ccc(Cl)cc3)O2)O1 (some centres not stated) ?
0.233

Quick one: composite z-score for `COc1ccc(C#C[C@@H]2C=C[C@H](OC(C)=O)[C@@H](COC(C)=O)O2)cc1` ?
-0.0985

Quick one: composite z-score for `COC(=O)CC=C[C@@H](C)[C@@H](C=NOC[C@H]1O[C@H](c2ccccc2)C=C[C@@H]1Oc1ccc(OC)cc1)OC` ?
-0.251
